# System: Staphylococcus aureus (NCTC 10788)
# Assay type: cell-based
# condition: NCTC 10788, 24 h
Where a SMILES comes first, the peptide text is derived from it.

{"compound": "CC(C)C[C@H](NC(=O)[C@H](C)NC(=O)[C@H](Cc1c[nH]c2ccccc12)NC(=O)[C@H](CCCCN)NC(=O)[C@@H]1CCCN1C(=O)[C@H](CC(C)C)NC(=O)[C@@H](N)Cc1ccccc1)C(=O)N[C@@H](CCCCN)C(=O)N[C@@H](Cc1c[nH]c2ccccc12)C(=O)N[C@@H](C)C(=O)N[C@@H](C)C(=O)N[C@@H](CCCCN)C(N)=O [OSf] (H-FLPKWALKWAAK-NH2; N-terminus assumed)", "target of assay": "Staphylococcus aureus (NCTC 10788)", "result comparator": "=", "MIC / µM": 8}
{"compound": "CC(C)C[C@H](NC(=O)[C@H](C)NC(=O)[C@H](Cc1c[nH]c2ccccc12)NC(=O)[C@H](CCCCN)NC(=O)[C@H](CC(C)C)NC(=O)[C@@H](N)Cc1ccccc1)C(=O)N[C@@H](CCCCN)C(=O)N[C@@H](Cc1c[nH]c2ccccc12)C(=O)N[C@@H](C)C(=O)N[C@@H](C)C(=O)N[C@@H](CCCCN)C(N)=O [OSe] (H-FLKWALKWAAK-NH2)", "target of assay": "Staphylococcus aureus (NCTC 10788)", "result comparator": "=", "MIC / µM": 4}
{"compound": "CC[C@H](C)[C@H](NC(=O)[C@@H](NC(=O)CNC(=O)[C@@H]1CCCN1C(=O)[C@@H](NC(=O)[C@@H](NC(=O)[C@H](CC(N)=O)NC(=O)[C@H](C)NC(=O)[C@H](C)NC(=O)[C@@H](NC(=O)[C@H](CCCCN)NC(=O)[C@H](CC(C)C)NC(=O)[C@@H](NC(=O)CNC(=O)[C@@H]1CCCN1C(=O)[C@H](CC(C)C)NC(=O)[C@@H](N)Cc1ccccc1)[C@@H](C)CC)C(C)C)C(C)C)C(C)C)C(C)C)C(=O)O [OSa] (H-FLPGILKVAANVVPGVI-OH)", "target of assay": "Staphylococcus aureus (NCTC 10788)", "result comparator": ">", "MIC / µM": 512}
{"compound": "CC[C@H](C)[C@H](NC(=O)[C@H](CCCCN)NC(=O)[C@@H]1CCCN1C(=O)[C@H](CC(C)C)NC(=O)[C@@H](N)Cc1ccccc1)C(=O)N[C@@H](CC(C)C)C(=O)N[C@@H](CCCCN)C(=O)N[C@H](C(=O)N[C@@H](C)C(=O)N[C@@H](C)C(=O)N[C@@H](CCCCN)C(N)=O)C(C)C [OSc] (H-FLPKILKVAAK-NH2)", "target of assay": "Staphylococcus aureus (NCTC 10788)", "result comparator": "=", "MIC / µM": 256}
{"compound": "CC(C)C[C@H](NC(=O)[C@H](C)NC(=O)[C@H](Cc1c[nH]c2ccccc12)NC(=O)[C@H](CCCCN)NC(=O)[C@H](CC(C)C)NC(=O)[C@@H](N)Cc1ccccc1)C(=O)N[C@@H](CCCCN)C(=O)N[C@H](C(=O)N[C@@H](C)C(=O)N[C@@H](C)C(=O)N[C@@H](CCCCN)C(N)=O)C(C)C [OSd] (H-FLKWALKVAAK-NH2)", "target of assay": "Staphylococcus aureus (NCTC 10788)", "result comparator": "=", "MIC / µM": 16}
{"compound": "CC[C@H](C)[C@H](NC(=O)CNC(=O)[C@@H]1CCCN1C(=O)[C@H](CC(C)C)NC(=O)[C@@H](N)Cc1ccccc1)C(=O)N[C@@H](CC(C)C)C(=O)N[C@@H](CCCCN)C(=O)N[C@H](C(=O)N[C@@H](C)C(=O)N[C@@H](C)C(=O)N[C@@H](CCCCN)C(N)=O)C(C)C [OSb] (H-FLPGILKVAAK-NH2)", "target of assay": "Staphylococcus aureus (NCTC 10788)", "result comparator": "=", "MIC / µM": 256}

====

# Test system: horse red blood cells
# procedure details: Haemolysis assay and therapeutic index
# condition: 2% horse red blood cells in PBS, 2 h, 37 °C, absorbance 570 nm; best-fitted curve
Where a SMILES comes first, the peptide text is derived from it.
measurement name: HC50 (concentration causing 50% haemolysis of the red blood cells) (µM)

{"molecule": "CC[C@H](C)[C@H](NC(=O)CNC(=O)[C@@H]1CCCN1C(=O)[C@H](CC(C)C)NC(=O)[C@@H](N)Cc1ccccc1)C(=O)N[C@@H](CC(C)C)C(=O)N[C@@H](CCCCN)C(=O)N[C@H](C(=O)N[C@@H](C)C(=O)N[C@@H](C)C(=O)N[C@@H](CCCCN)C(N)=O)C(C)C [OSb] (H-FLPGILKVAAK-NH2)", "unit of measurement": "µM", "result comparator": "=", "assay value": 381.4}
{"molecule": "CC(C)C[C@H](NC(=O)[C@H](C)NC(=O)[C@H](Cc1c[nH]c2ccccc12)NC(=O)[C@H](CCCCN)NC(=O)[C@H](CC(C)C)NC(=O)[C@@H](N)Cc1ccccc1)C(=O)N[C@@H](CCCCN)C(=O)N[C@@H](Cc1c[nH]c2ccccc12)C(=O)N[C@@H](C)C(=O)N[C@@H](C)C(=O)N[C@@H](CCCCN)C(N)=O [OSe] (H-FLKWALKWAAK-NH2)", "unit of measurement": "µM", "result comparator": "=", "assay value": 64.03}
{"molecule": "CC(C)C[C@H](NC(=O)[C@H](C)NC(=O)[C@H](Cc1c[nH]c2ccccc12)NC(=O)[C@H](CCCCN)NC(=O)[C@@H]1CCCN1C(=O)[C@H](CC(C)C)NC(=O)[C@@H](N)Cc1ccccc1)C(=O)N[C@@H](CCCCN)C(=O)N[C@@H](Cc1c[nH]c2ccccc12)C(=O)N[C@@H](C)C(=O)N[C@@H](C)C(=O)N[C@@H](CCCCN)C(N)=O [OSf] (H-FLPKWALKWAAK-NH2; N-terminus assumed)", "unit of measurement": "µM", "result comparator": "=", "assay value": 328.3}
{"molecule": "CC[C@H](C)[C@H](NC(=O)[C@H](CCCCN)NC(=O)[C@@H]1CCCN1C(=O)[C@H](CC(C)C)NC(=O)[C@@H](N)Cc1ccccc1)C(=O)N[C@@H](CC(C)C)C(=O)N[C@@H](CCCCN)C(=O)N[C@H](C(=O)N[C@@H](C)C(=O)N[C@@H](C)C(=O)N[C@@H](CCCCN)C(N)=O)C(C)C [OSc] (H-FLPKILKVAAK-NH2)", "unit of measurement": "µM", "result comparator": ">", "assay value": 512}

====

# System: Methicillin-resistant Staphylococcus aureus (MRSA, ATCC 12493)
# Format: cell-based
# condition: ATCC 12493, 18 h
Where a SMILES comes first, the peptide text is derived from it.
The compounds listed here are annotated with their MBC.

{"compound": "CC(C)C[C@H](NC(=O)[C@H](C)NC(=O)[C@H](Cc1c[nH]c2ccccc12)NC(=O)[C@H](CCCCN)NC(=O)[C@H](CC(C)C)NC(=O)[C@@H](N)Cc1ccccc1)C(=O)N[C@@H](CCCCN)C(=O)N[C@@H](Cc1c[nH]c2ccccc12)C(=O)N[C@@H](C)C(=O)N[C@@H](C)C(=O)N[C@@H](CCCCN)C(N)=O [OSe] (H-FLKWALKWAAK-NH2)", "MBC": "8 µM"}
{"compound": "CC[C@H](C)[C@H](NC(=O)[C@H](CCCCN)NC(=O)[C@@H]1CCCN1C(=O)[C@H](CC(C)C)NC(=O)[C@@H](N)Cc1ccccc1)C(=O)N[C@@H](CC(C)C)C(=O)N[C@@H](CCCCN)C(=O)N[C@H](C(=O)N[C@@H](C)C(=O)N[C@@H](C)C(=O)N[C@@H](CCCCN)C(N)=O)C(C)C [OSc] (H-FLPKILKVAAK-NH2)", "MBC": "> 512 µM"}
{"compound": "CC[C@H](C)[C@H](NC(=O)CNC(=O)[C@@H]1CCCN1C(=O)[C@H](CC(C)C)NC(=O)[C@@H](N)Cc1ccccc1)C(=O)N[C@@H](CC(C)C)C(=O)N[C@@H](CCCCN)C(=O)N[C@H](C(=O)N[C@@H](C)C(=O)N[C@@H](C)C(=O)N[C@@H](CCCCN)C(N)=O)C(C)C [OSb] (H-FLPGILKVAAK-NH2)", "MBC": "> 512 µM"}

====

# Test system: Methicillin-resistant Staphylococcus aureus (MRSA, ATCC 12493)
# Type: cell-based
# condition: ATCC 12493, 18 h
Where a SMILES comes first, the peptide text is derived from it.

{"molecule": "CC(C)C[C@H](NC(=O)[C@H](C)NC(=O)[C@H](Cc1c[nH]c2ccccc12)NC(=O)[C@H](CCCCN)NC(=O)[C@H](CC(C)C)NC(=O)[C@@H](N)Cc1ccccc1)C(=O)N[C@@H](CCCCN)C(=O)N[C@H](C(=O)N[C@@H](C)C(=O)N[C@@H](C)C(=O)N[C@@H](CCCCN)C(N)=O)C(C)C [OSd] (H-FLKWALKVAAK-NH2)", "target of assay": "Methicillin-resistant Staphylococcus aureus (MRSA, ATCC 12493)", "MBC / µM": 32}
{"molecule": "CC(C)C[C@H](NC(=O)[C@H](C)NC(=O)[C@H](Cc1c[nH]c2ccccc12)NC(=O)[C@H](CCCCN)NC(=O)[C@@H]1CCCN1C(=O)[C@H](CC(C)C)NC(=O)[C@@H](N)Cc1ccccc1)C(=O)N[C@@H](CCCCN)C(=O)N[C@@H](Cc1c[nH]c2ccccc12)C(=O)N[C@@H](C)C(=O)N[C@@H](C)C(=O)N[C@@H](CCCCN)C(N)=O [OSf] (H-FLPKWALKWAAK-NH2; N-terminus assumed)", "target of assay": "Methicillin-resistant Staphylococcus aureus (MRSA, ATCC 12493)", "MBC / µM": 64}

Hey, just so you know, these numbers are from paper PMC7472354.
